Please go through the items and note down their binding signal.
tested-target: GST-Rok (full length) (Bacillus subtilis subsp. subtilis str. …, UniProt O34857 1-191)
Sequence: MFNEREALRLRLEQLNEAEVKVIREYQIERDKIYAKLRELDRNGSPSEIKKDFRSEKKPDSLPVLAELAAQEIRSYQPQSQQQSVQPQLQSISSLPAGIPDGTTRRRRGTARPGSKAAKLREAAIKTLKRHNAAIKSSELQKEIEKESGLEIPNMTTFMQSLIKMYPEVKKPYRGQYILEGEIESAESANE
protocol-details: protein binding microarray; Rok is a gene silencer of Bacillus subtilis; high values mean tight binding
test-settings: protein: recombinant; tags: GST (pTH5325, pDEST15-Magic modified); dsDNA, one strand shown
Over roughly 33,000 sequences, “e-score” has its median near -0.037; the highest 2% begin near 0.34. The full list was thinned out, with the highest values kept by preference.

The recorded binding signal for `ATGGTATA` is 0.381 E-score

The recorded binding signal for `ATGGTATC` is 0.165 E-score

The recorded binding signal for `CGTGAACA` is 0.0255 E-score

The recorded binding signal for `AACTAAAG` is -0.0498 E-score

The recorded binding signal for `GTATACGA` is 0.179 E-score

The recorded binding signal for `GCTAGAAA` is 0.37 E-score

The recorded binding signal for `CGTAAGGC` is -0.174 E-score

The recorded binding signal for `CCTGTAAG` is -0.159 E-score

The recorded binding signal for `CGATGGAA` is 0.0214 E-score

The recorded binding signal for `CGAGCCAC` is -0.119 E-score

The recorded binding signal for `ACACTAGA` is 0.197 E-score

The recorded binding signal for `CCTAGAAA` is 0.0461 E-score

The recorded binding signal for `AAATCTAC` is 0.398 E-score

The recorded binding signal for `ATGGTAGG` is 0.243 E-score

The recorded binding signal for `AATTGGTC` is 0.0556 E-score

The recorded binding signal for `AAATCTAT` is 0.315 E-score

The recorded binding signal for `CATGCCGA` is 0.0242 E-score

The recorded binding signal for `TCTCGACA` is -0.0144 E-score

The recorded binding signal for `GGGAAGTA` is 0.17 E-score

The recorded binding signal for `GACCCAGA` is -0.174 E-score

The recorded binding signal for `CGTCTCTA` is -0.15 E-score

The recorded binding signal for `AGACGCAA` is -0.089 E-score

The recorded binding signal for `ATTAGGCC` is -0.131 E-score

The recorded binding signal for `ATTTACAC` is 0.23 E-score

The recorded binding signal for `ATCAATGA` is 0.0966 E-score

The recorded binding signal for `GAGCTGCA` is -0.0813 E-score

The recorded binding signal for `AACCAGAG` is -0.187 E-score

The recorded binding signal for `AGACTAGA` is 0.173 E-score

The recorded binding signal for `ATATATGA` is 0.287 E-score

The recorded binding signal for `ACAGTACG` is 0.142 E-score

The recorded binding signal for `ACCTAAAA` is 0.306 E-score

The recorded binding signal for `GAACTAGA` is 0.36 E-score

The recorded binding signal for `CCGAACTC` is 0.0171 E-score

The recorded binding signal for `ACTGCCAC` is -0.0928 E-score

The recorded binding signal for `ATATACTA` is 0.409 E-score

The recorded binding signal for `AGTTACTC` is 0.188 E-score

The recorded binding signal for `CGATACTA` is 0.328 E-score

The recorded binding signal for `GACTAAAA` is 0.123 E-score

The recorded binding signal for `AGTTACTA` is 0.345 E-score

The recorded binding signal for `GTTCTCAA` is 0.0738 E-score

The recorded binding signal for `CAGTGGTA` is 0.258 E-score

The recorded binding signal for `CATAGCCG` is -0.0675 E-score

The recorded binding signal for `ACAAGAAA` is -0.0731 E-score

The recorded binding signal for `AGTAGGTA` is 0.404 E-score

The recorded binding signal for `AATTGGTA` is 0.339 E-score

The recorded binding signal for `ACTAGAAA` is 0.344 E-score

The recorded binding signal for `CGGTGTTC` is -0.0645 E-score

The recorded binding signal for `GTAGAGAA` is 0.189 E-score

The recorded binding signal for `CAACTAGA` is 0.247 E-score

The recorded binding signal for `GGATACTA` is 0.211 E-score

The recorded binding signal for `CCATTTAC` is 0.0848 E-score

The recorded binding signal for `AGATAACA` is 0.241 E-score

The recorded binding signal for `AACTAAAA` is 0.345 E-score

The recorded binding signal for `AGTTAGGG` is -0.0305 E-score

The recorded binding signal for `AACGTAGA` is 0.17 E-score

The recorded binding signal for `CATTGGTA` is 0.223 E-score

The recorded binding signal for `AGTAGGTC` is 0.069 E-score

The recorded binding signal for `AAAGCCTG` is -0.18 E-score

The recorded binding signal for `GCAAGTAA` is -0.0735 E-score

The recorded binding signal for `AACTAAAT` is 0.362 E-score

The recorded binding signal for `ACTAGAAG` is 0.215 E-score

The recorded binding signal for `ATAGGTCC` is 0.123 E-score

The recorded binding signal for `CACAGTGA` is 0.137 E-score

The recorded binding signal for `GTATATTA` is 0.391 E-score

The recorded binding signal for `AGTGAATG` is 0.0707 E-score

The recorded binding signal for `ATATATTA` is 0.467 E-score

The recorded binding signal for `GGTTGTAC` is 0.114 E-score

The recorded binding signal for `CCGATATA` is 0.297 E-score

The recorded binding signal for `ATATACTG` is 0.391 E-score

The recorded binding signal for `CTATACTA` is 0.288 E-score

The recorded binding signal for `CGCGATGC` is -0.0559 E-score

The recorded binding signal for `ATCTATTA` is 0.312 E-score

The recorded binding signal for `ACCAAGGT` is -0.0988 E-score

The recorded binding signal for `ATGGTAGA` is 0.444 E-score

The recorded binding signal for `GTATATGA` is 0.216 E-score

The recorded binding signal for `GCGATATA` is 0.342 E-score

The recorded binding signal for `GGGATATA` is 0.221 E-score

The recorded binding signal for `CAAAAAAC` is 0.0394 E-score

The recorded binding signal for `ACTGCCGC` is -0.152 E-score

The recorded binding signal for `CTATACTC` is 0.137 E-score

The recorded binding signal for `CACTAAAA` is 0.293 E-score

The recorded binding signal for `ATTTACAG` is 0.24 E-score

The recorded binding signal for `ACTAGAAC` is 0.296 E-score

The recorded binding signal for `GTGGTAAA` is 0.192 E-score

The recorded binding signal for `CCTGCGAA` is -0.196 E-score

The recorded binding signal for `ATTTACAA` is 0.368 E-score

The recorded binding signal for `ACGATATA` is 0.298 E-score

The recorded binding signal for `GCTACGTA` is 0.298 E-score

The recorded binding signal for `GAGATATC` is 0.181 E-score

The recorded binding signal for `CATAGGGA` is -0.158 E-score

The recorded binding signal for `GTGACAAC` is -0.0442 E-score

Numbers sourced from paper PMC6212790.
